Attribution: patent US9815851B2

Documented pIC50 (FF) across a set of compounds
- Tgt: RORγ (UniProt P51449)
- Measurement Notes: RORγ Gal4 Reporter Gene Assay in 293T cells (firefly and renilla luciferase)
- Type: cell-based, human
- Applied Conditions: second value of the cell; Gal4 reporter gene assay in 293T cells, firefly luciferase
Form rule: numeric answer, no unit written next to it.

Worked cases, answers included:
Smiles Text	pIC50 (FF)
Cc1c(C(=O)N[C@H]2C[C@H](C(=O)O)C2)cc(-c2cc(C(C)(C)C)cc(C3(O)CC3)c2)n1CC1CCCCC1	7.0
Cc1c(C(=O)NCCCCCO)cc(-c2cc(C(C)(C)C)cc(C(C)(C)C)c2)n1CC1CCCCC1	7.2

Please look at the following compound next.
The value of pIC50 (FF) measured for the compound `Cc1c(C(=O)NC2CCOCC2)cc(-c2cc(C(C)(C)O)c3c(c2)C2(CCO3)CC2)n1CC1CCCCC1` turned out to be 6.9

* * *

Documented pIC50 (FF) across a set of compounds
- Tgt: RORγ (UniProt P51449)
- Sequence (P51449 1-518): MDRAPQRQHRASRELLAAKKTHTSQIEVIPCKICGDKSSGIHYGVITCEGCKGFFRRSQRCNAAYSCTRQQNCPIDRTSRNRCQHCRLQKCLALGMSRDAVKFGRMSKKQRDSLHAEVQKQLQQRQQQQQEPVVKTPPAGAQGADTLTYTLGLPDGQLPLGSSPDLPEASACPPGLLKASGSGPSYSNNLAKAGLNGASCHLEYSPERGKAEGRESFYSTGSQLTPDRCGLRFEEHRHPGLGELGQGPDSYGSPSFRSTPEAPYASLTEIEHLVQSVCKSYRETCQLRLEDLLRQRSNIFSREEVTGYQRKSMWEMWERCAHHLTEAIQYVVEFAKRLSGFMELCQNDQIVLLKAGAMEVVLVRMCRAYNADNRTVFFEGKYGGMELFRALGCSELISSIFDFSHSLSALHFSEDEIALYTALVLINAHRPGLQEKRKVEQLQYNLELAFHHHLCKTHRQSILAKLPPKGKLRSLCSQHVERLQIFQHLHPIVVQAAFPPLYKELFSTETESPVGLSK
- Measurement Notes: RORγ Gal4 Reporter Gene Assay in 293T cells (firefly and renilla luciferase)
- Format: cell-based, human
- Applied Conditions: second value of the cell; Gal4 reporter gene assay in 293T cells, firefly luciferase

Worked cases, answers included:
Compound	Experimental Value
Cc1c(C(=O)NCC(C)(C)C(N)=O)cc(-c2cc(C(C)(C)C)c3c(c2)C2(CCO3)CC2)n1CC1CCCCC1 [1/98]	7.3
CC(C)(C)NS(=O)(=O)c1ccc(-c2cc(C(=O)NC3CCOCC3)c(CF)n2CC2CCCCC2)cc1C(C)(C)C [17/118]	6.3
Cc1c(C(=O)NCC2(C(=O)O)CCOCC2)cc(-c2cc(C(C)(C)C)c3c(c2)C2(CCO3)CC2)n1CC1CCCCC1 [17/40]	6.9
Cc1c(C(=O)NC2CCOCC2)cc(-c2cc(C(F)(F)F)c3c(c2)C(C)(C)C(=O)N3C)n1CC1CCCCC1 [17/148]	7.0
Cc1c(C(=O)N[C@H]2C[C@H](C(=O)O)C2)cc(-c2ccc(S(=O)(=O)NC(C)(C)C)c(C(F)(F)F)c2)n1CC1CCCCC1 [17/220]	6.6
Cc1c(C(=O)NCC(C)(C)C(=O)O)cc(-c2ccc(S(=O)(=O)NC(C)(C)C)c(C(C)(C)O)c2)n1CC1CCCCC1 [17/327]	6.8
Cc1c(C(=O)NC[C@H](C)O)cc(-c2cc(C(C)(C)C)cc(C(C)(C)C)c2)n1CC1CCCCC1 [1/60]	6.2
Cc1c(C(=O)N[C@H]2C[C@H](C(=O)O)C2)cc(-c2cc(C(C)(C)C)cc(C(F)(F)F)c2)n1CC1CCCCC1 [17/304]	7.2

Please look at the following compound next.
So the reported pIC50 (FF) for Cc1c(C(=O)N2CC3(COCC(=O)N3)C2)cc(-c2ccc(S(=O)(=O)NC(C)(C)C)c(C(F)(F)F)c2)n1CC1CCCCC1 [17/293] , on RORγ (UniProt P51449), turned out to be 6.6
